Notes on GI50 obtained with TK-10 renal.
value-type: GI50

[
  {
    "molecule": "Cc1n[nH]c(=S)n1/N=C/c1ccc(F)c(Oc2ccccc2)c1",
    "recorded-result": "43900 nM"
  },
  {
    "molecule": "CC1(C)CC(=O)C2=C(C1)NC(SSC1=C(C#N)C(c3ccc(F)cc3)C3=C(CC(C)(C)CC3=O)N1)=C(C#N)C2c1ccc(F)cc1 (stereo not drawn)",
    "recorded-result": "23.6 µg/mL"
  },
  {
    "molecule": "O=C(O)C1NCCc2c1[nH]c1ccccc21 (stereo not drawn)",
    "recorded-result": "> 100000 nM"
  },
  {
    "molecule": "C=C1C(=O)O[C@H]2[C@H]1CC/C(COC(=O)CCCCCCCCC(=O)OC/C1=C/CC[C@@]3(C)O[C@H]3[C@H]3OC(=O)C(=C)[C@@H]3CC1)=C\\CC[C@@]1(C)O[C@@H]21",
    "recorded-result": "2470 nM"
  },
  {
    "molecule": "C=C1C(=O)O[C@H]2[C@H]1CC/C(Cn1cc(Cn3ccc4ccccc43)nn1)=C\\CC[C@@]1(C)O[C@@H]21",
    "recorded-result": "1650 nM"
  },
  {
    "molecule": "CN[C@]12CC3(C=CC(=O)C=C3)O[C@@]1(Cc1ccc(OC)cc1)N(C)C(=O)N2",
    "recorded-result": "2480 nM"
  },
  {
    "molecule": "CN(C)CCCN(c1nc(C(Cl)(Cl)Cl)ns1)c1nc(C(Cl)(Cl)Cl)ns1",
    "recorded-result": "1930 nM"
  },
  {
    "molecule": "O=C(Nc1nccs1)c1cc2c(cc1Cl)Sc1nccn1S2(=O)=O",
    "recorded-result": "18900 nM"
  }
]

###

Tested on: SK-MEL-28 melanoma
Assay: NCI tumour cell line growth inhibition, 48 h
Recorded measurements of TGI, one per entry
value-type: TGI

[
  {
    "compound": "CCCCCCCC/C=C/CCCCCCCC1=NC(C)(C)CN1C(C)C",
    "recorded-result": "2.86 µM"
  },
  {
    "compound": "Cc1ccccc1NC(=O)C(=O)C(c1cnc2ccc([N+](=O)[O-])cc2n1)[N+](=O)[O-] (configuration not stated)",
    "recorded-result": "> 100 µM"
  },
  {
    "compound": "C#CCN=C(N/N=C/c1ccc([N+](=O)[O-])o1)NS(=O)(=O)c1cc(C)c(Cl)cc1SCC(N)=O",
    "recorded-result": "32.7 µM"
  },
  {
    "compound": "O=C(NCc1ccccc1)c1cc2cc(O)c(O)cc2cn1",
    "recorded-result": "> 100 µM"
  },
  {
    "compound": "O=S(=O)(N=S(c1ccc(Cl)cc1)c1ccc(Cl)cc1)c1ccccc1",
    "recorded-result": "> 100 µM"
  },
  {
    "compound": "Cc1ccc(S(=O)(=O)OC2=C/C(=N\\c3onc(C)c3C)c3ccccc3C2=O)cc1",
    "recorded-result": "> 100 µM"
  },
  {
    "compound": "COc1ccc(CNC2=C(NC(C)=O)C(=O)c3ccccc3C2=O)cc1",
    "recorded-result": "> 50 µM"
  },
  {
    "compound": "CCC(C)OC(=O)C1C2CCC(O2)C1C(=O)O (configuration not stated)",
    "recorded-result": "> 100 µM"
  },
  {
    "compound": "CC1=C2C(=O)OCC23C=COC3(C)O1 (configuration not stated)",
    "recorded-result": "46.3 µM"
  },
  {
    "compound": "CCOC(=O)C(Cc1c2ccccc2cc2ccccc12)(NC(C)=O)C(=O)OCC",
    "recorded-result": "> 100 µM"
  },
  {
    "compound": "COC(=O)C1=CN=C(C(=O)OC)NN1",
    "recorded-result": "> 100 µM"
  },
  {
    "compound": "ClC1CCC2OOC1O2 (configuration not stated)",
    "recorded-result": "> 100 µM"
  },
  {
    "compound": "Cc1cccc(N=Nc2c(C)nn(C(=O)CC(=O)Nc3ccccc3)c2C)c1",
    "recorded-result": "> 100 µM"
  },
  {
    "compound": "Cc1cc2c(c(C=Nc3ccc([N+](=O)[O-])cc3)c1)OC1(C=C2)Oc2ccccc2C(=O)N1C (configuration not stated)",
    "recorded-result": "44.8 µM"
  },
  {
    "compound": "CC(C)OCC(O)COc1ccc2ccc(=O)oc2c1 (configuration not stated)",
    "recorded-result": "> 100 µM"
  },
  {
    "compound": "O=C1c2cccnc2S(=O)N1Cc1ccccc1 (configuration not stated)",
    "recorded-result": "> 100 µM"
  },
  {
    "compound": "COC(=O)[C@@H]1C[C@H]([Se]c2ccccc2)CN1S(=O)(=O)c1ccc(C)cc1",
    "recorded-result": "> 100 µM"
  },
  {
    "compound": "O=C1N=C(c2ccccc2)OC1C(=O)c1ccccc1 (configuration not stated)",
    "recorded-result": "> 100 µM"
  },
  {
    "compound": "CC(C)(C)[Si](C)(C)OCCCCC1CC2(S(=O)(=O)C3=CC=C=C=C3)ON1CC2S(=O)(=O)c1ccccc1 (configuration not stated)",
    "recorded-result": "> 100 µM"
  },
  {
    "compound": "CCN(CC)CCOc1ccc(/C(=C(\\C)Cc2ccc(OC)cc2)c2ccc(OC(=O)NCc3ccccc3)cc2)cc1",
    "recorded-result": "3.44 µM"
  },
  {
    "compound": "COC(=O)C1(C(=O)OC)CC2c3c(c4ccccc4n3C)CC(C1=O)N2Cc1ccccc1 (configuration not stated)",
    "recorded-result": "> 100 µM"
  },
  {
    "compound": "ClCc1ccc(-c2ccc(Cn3cnc4c(Cl)nc(Cl)nc43)cc2)cc1",
    "recorded-result": "3.1 µM"
  },
  {
    "compound": "CCOC(=O)C(Cc1ccccc1)NC(=O)c1ccc(N=NN(C)C)cc1 (configuration not stated)",
    "recorded-result": "> 100 µM"
  },
  {
    "compound": "NCCNc1nc(N2CCCC2)c2nc(Cl)c(NCc3ccccc3)nc2n1",
    "recorded-result": "3.39 µM"
  },
  {
    "compound": "COc1ccc(N=C2C(=O)C3=C(OC(C)(C)CC3)c3ccccc32)cc1",
    "recorded-result": "2.48 µM"
  },
  {
    "compound": "Nc1ncnc2c1ncn2C1C=CC(CP(=O)(O)O)C1 (configuration not stated)",
    "recorded-result": "> 100 µM"
  },
  {
    "compound": "COc1ccc(-c2c(C#N)c(-c3ccc(C)cc3)n(NS(=O)(=O)c3ccccc3)c(=O)c2C#N)cc1",
    "recorded-result": "> 100 µM"
  },
  {
    "compound": "C/C(=N\\NC(=O)c1cccnc1)c1cccc(/C(C)=N/NC(=O)c2cccnc2)n1",
    "recorded-result": "> 100 µM"
  },
  {
    "compound": "COc1ccc(-c2cc(=O)c3c(OC)c(OC)c(OC)c(OC)c3o2)cc1OC",
    "recorded-result": "> 100 µM"
  },
  {
    "compound": "C#CCOCn1cnc2c(=S)nc[nH]c21",
    "recorded-result": "> 100 µM"
  },
  {
    "compound": "Nc1ccccc1N/C(=C\\C(=O)C(Cl)(Cl)Cl)c1ccccc1",
    "recorded-result": "> 100 µM"
  },
  {
    "compound": "O=S1(=O)OC(c2ccc(O)cc2)(c2ccc(O)cc2)c2ccccc21",
    "recorded-result": "> 100 µM"
  },
  {
    "compound": "CC(=O)CCNc1ccc(-c2cc(-c3ccc(N(C)C)cc3)nc3ccc4ccccc4c23)cc1",
    "recorded-result": "> 100 µM"
  },
  {
    "compound": "Nc1nc(N)c2c(n1)NC(c1ccccc1)CC(/C=C/c1ccc(Cl)cc1)=N2 (configuration not stated)",
    "recorded-result": "28.1 µM"
  },
  {
    "compound": "O=C(O)CC(Nc1ccccc1)C(=O)O (configuration not stated)",
    "recorded-result": "> 100 µM"
  },
  {
    "compound": "COc1cccc2c(NNc3ccccc3)c3ccc([N+](=O)[O-])cc3nc12",
    "recorded-result": "> 100 µM"
  },
  {
    "compound": "CC1(C)CC(=O)C2=C(C1)NC(SSC1=C(C#N)C(c3ccc(F)cc3)C3=C(CC(C)(C)CC3=O)N1)=C(C#N)C2c1ccc(F)cc1 (configuration not stated)",
    "recorded-result": "46.4 µg/mL"
  },
  {
    "compound": "Oc1ccc(CNCc2ccccc2)c2cccnc12",
    "recorded-result": "> 100 µM"
  },
  {
    "compound": "O=C1C(=O)N(C(=O)c2ccc(Cl)c(Cl)c2)c2ccc(Cl)cc21",
    "recorded-result": "> 100 µM"
  },
  {
    "compound": "O=C(c1cccc(OCc2ccccc2)c1OCc1ccccc1)N1CCSC1=S",
    "recorded-result": "> 100 µM"
  },
  {
    "compound": "C/C=C/C=N/N(C(=O)c1cc([N+](=O)[O-])cc([N+](=O)[O-])c1)C1=NC(c2ccccc2)C(c2ccccc2)=NN1 (configuration not stated)",
    "recorded-result": "> 100 µM"
  },
  {
    "compound": "C[C@]12CC[C@@H]3c4ccccc4CC[C@H]3[C@@H]1CC[C@@H]2O",
    "recorded-result": "> 100 µM"
  }
]
